PROTOCOL TEXT: Substrate activity at ADH101 (unknown origin) assessed as specific enzyme activity using NADH as cofactor at 2.5 to 10 mM measured for 30 mins in presence of Tris HCL buffer by UV-Vis spectroscopy analysis
TEST CONTEXT: dose 2.5-10 mM
OBSERVED PROPERTY: Activity (nmol/min/mg)
Give a bare numeral; the unit nmol/min/mg is implied.

// returns reported Activity for input CC(=O)c1ccccc1Br
75.1

One more compound: CC(=O)c1ccc(F)cc1
26.4

One more compound: CC(=O)c1ccc(F)nc1
24.7
